// provenance: patent US11873295B2

The reader will find reported IC50 values listed item by item below.
target: human full length PIK3KA H1047R mutant (p110α/p85α complex) (Homo sapiens, UniProt P42336, H1047R); construct: Recombinant, catalytically active human full length PIK3KA Wild-type and H1047R mutant were purchased as 1:1 complex; 6xHis (N); purchased EMD Millipore Sigma 14-792M; experiment: PI3K-alpha kinase (PIK3CA) biochemical activity, H1047R mutant, ADP-Glo; details: PI3K-α (PIK3CA) biochemical, H1047R mutant, Soy PI lipid substrate
Sequence (P42336 whole entry H1047R): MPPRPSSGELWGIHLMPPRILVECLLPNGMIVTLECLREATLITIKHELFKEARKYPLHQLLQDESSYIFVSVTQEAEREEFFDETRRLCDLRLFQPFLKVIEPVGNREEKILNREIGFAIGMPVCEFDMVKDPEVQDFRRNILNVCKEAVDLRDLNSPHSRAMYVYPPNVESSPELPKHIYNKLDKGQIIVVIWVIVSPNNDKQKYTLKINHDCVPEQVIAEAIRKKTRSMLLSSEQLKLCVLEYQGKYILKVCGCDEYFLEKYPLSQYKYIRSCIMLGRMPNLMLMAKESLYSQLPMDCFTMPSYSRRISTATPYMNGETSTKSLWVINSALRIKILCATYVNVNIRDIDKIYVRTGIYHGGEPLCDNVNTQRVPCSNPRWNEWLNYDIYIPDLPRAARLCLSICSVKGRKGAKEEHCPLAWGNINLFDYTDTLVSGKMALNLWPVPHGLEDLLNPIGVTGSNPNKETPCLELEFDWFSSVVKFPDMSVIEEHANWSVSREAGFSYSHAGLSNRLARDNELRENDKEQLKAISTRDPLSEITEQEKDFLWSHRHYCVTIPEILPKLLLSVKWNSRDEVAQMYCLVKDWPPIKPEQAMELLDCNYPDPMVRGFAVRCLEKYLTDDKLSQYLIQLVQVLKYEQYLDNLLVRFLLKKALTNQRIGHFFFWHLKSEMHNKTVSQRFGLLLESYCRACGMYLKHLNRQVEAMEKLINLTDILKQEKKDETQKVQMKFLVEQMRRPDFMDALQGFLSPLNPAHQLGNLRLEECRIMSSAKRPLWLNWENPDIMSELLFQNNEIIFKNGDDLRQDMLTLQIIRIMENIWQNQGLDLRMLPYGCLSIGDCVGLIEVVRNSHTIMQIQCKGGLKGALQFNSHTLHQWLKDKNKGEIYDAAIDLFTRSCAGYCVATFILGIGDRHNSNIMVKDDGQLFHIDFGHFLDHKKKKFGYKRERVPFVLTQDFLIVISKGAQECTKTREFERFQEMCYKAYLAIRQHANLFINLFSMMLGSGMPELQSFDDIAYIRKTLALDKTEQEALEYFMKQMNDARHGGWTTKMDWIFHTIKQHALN
Sequence (P27986 whole entry partner): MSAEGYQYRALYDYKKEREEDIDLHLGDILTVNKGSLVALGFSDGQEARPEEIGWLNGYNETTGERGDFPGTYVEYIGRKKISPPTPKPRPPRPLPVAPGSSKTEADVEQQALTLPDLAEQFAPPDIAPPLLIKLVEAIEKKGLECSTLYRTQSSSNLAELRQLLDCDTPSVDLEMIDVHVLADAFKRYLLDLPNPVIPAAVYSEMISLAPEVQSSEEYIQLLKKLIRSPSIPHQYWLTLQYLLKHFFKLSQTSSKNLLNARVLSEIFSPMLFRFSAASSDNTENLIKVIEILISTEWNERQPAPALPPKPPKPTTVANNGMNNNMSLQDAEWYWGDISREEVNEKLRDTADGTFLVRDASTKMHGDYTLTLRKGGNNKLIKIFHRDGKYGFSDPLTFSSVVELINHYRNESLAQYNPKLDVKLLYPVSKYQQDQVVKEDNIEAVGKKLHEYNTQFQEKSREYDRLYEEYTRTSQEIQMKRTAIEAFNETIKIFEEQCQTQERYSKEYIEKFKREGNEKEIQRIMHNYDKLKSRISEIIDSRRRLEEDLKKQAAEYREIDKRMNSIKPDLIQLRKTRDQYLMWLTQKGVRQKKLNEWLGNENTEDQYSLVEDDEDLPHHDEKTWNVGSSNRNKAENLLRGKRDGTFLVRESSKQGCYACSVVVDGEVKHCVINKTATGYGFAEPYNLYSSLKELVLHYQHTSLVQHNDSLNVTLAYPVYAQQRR

Molecule	IC50
Cc1cc(C(C)Nc2cccc(F)c2C(=O)O)c2oc(-c3cccc(F)c3)c(C)c(=O)c2c1 (stereo not shown) [Example 95]	< 500 nM
Cc1cc([C@@H](C)Nc2ccccc2C(=O)O)c2oc(-c3ccccc3)c(C)c(=O)c2c1	< 500 nM
Cc1cc([C@@H](C)Nc2ccccc2C(=O)O)c2oc(-c3ccccc3)c(-c3cccnc3)c(=O)c2c1	500 to 1000 nM
Cc1cc([C@@H](C)Nc2cccnc2C(=O)O)c2oc(-c3ccccc3F)c(C)c(=O)c2c1	1000 to 5000 nM
Cc1cc([C@@H](C)Nc2ccc(Cl)nc2C(=O)O)c2oc(-c3ccccc3)cc(=O)c2c1	< 500 nM
Cc1cc([C@@H](C)Nc2ccc(C)nc2C(=O)O)c2oc(-c3ccccc3F)c(C)c(=O)c2c1	500 to 1000 nM

Moving on to another molecule below.
-- ask Entry Cc1cc([C@@H](C)Nc2ccc(Cl)nc2C(=O)O)c2oc(-c3ccc(F)cc3F)c(C)c(=O)c2c1 needs its IC50 filled in; supply it.
-- reply < 500 nM

----------
The reader will find reported pIC50 values listed item by item below.
Molecular target: human full length PIK3KA Wild-type (p110α/p85α complex) (Homo sapiens)
Construct: Recombinant, catalytically active human full length PIK3KA Wild-type and H1047R mutant were purchased as 1:1 complex; 6xHis (N); purchased EMD Millipore Sigma 14-602M
Assay: PI3K-alpha kinase (PIK3CA) biochemical activity, wild-type, ADP-Glo
Conditions: PI3K-α (PIK3CA) biochemical, Soy PI lipid substrate
Source text: PI3K-Alpha Kinase (PIK3CA) Activity, Wild-Type and H1047R Mutant and Determining IC50 Values for Inhibitors Recombinant, catalytically active human full length PIK3KA Wild-type and H1047R mutant were purchased as 1:1 complex of N-terminal 6× his tagged p110α (catalytic) and untagged p85α (regulatory subunit) from EMD Millipore Sigma (cat. no. 14-602M and 14-792M, respectively). […]
pIC50: −log10 of the molar value.

Compound	Target of assay	pIC50
Cc1c(-c2ccc(F)cc2F)oc2c([C@@H](C)Nc3ccc(Cl)nc3C(=O)O)cc(C(F)(F)F)cc2c1=O	human full length PIK3KA Wild-type (p110α/p85α complex) (Homo sapiens)	6.00 to 6.30
Cc1cc([C@@H](C)Nc2ccccc2C(=O)O)c2oc(-c3ccccc3)c(C)c(=O)c2c1	human full length PIK3KA Wild-type (p110α/p85α complex) (Homo sapiens)	5.30 to 6.00
Cc1cc([C@@H](C)Nc2ccc(Cl)c(F)c2C(=O)O)c2oc(-c3ccccc3)c(C)c(=O)c2c1	human full length PIK3KA Wild-type (p110α/p85α complex) (Homo sapiens)	6.00 to 6.30

Moving on to another compound below.
-- ask Entry Cc1cc(C(C)Nc2ccccc2C(=O)O)c2oc(-c3cccc(-c4cnn(C)c4)c3)cc(=O)c2c1.O=C(O)C(F)(F)F (stereo not shown) needs its pIC50 filled in; supply it.
-- reply 5.30 to 6.00
